Let's look at some compounds and their measured GRinf.
# Test system: Mycobacterium tuberculosis Erdman (autoluminescent)
# test details: GRinf, maximum normalised growth rate inhibition (three-drug combination) (unitless (-1 to 1)); higher = less effect (negative = killing)
# stated conditions: in vitro model: dormancy (butyrate + nitrate, low O2); time point: constant (~7 days, model-specific)

{"compound": "NNC(=O)c1ccncc1 [isoniazid] + CC(=O)NC[C@H]1CN(c2ccc(N3CCOCC3)c(F)c2)C(=O)O1 [linezolid] + CO[C@H]1/C=C/O[C@@]2(C)Oc3c(C)c(O)c4c(O)c(c(/C=N/N5CCN(C)CC5)c(O)c4c3C2=O)NC(=O)/C(C)=C\\C=C\\[C@H](C)[C@H](O)[C@@H](C)[C@@H](O)[C@@H](C)[C@H](OC(C)=O)[C@@H]1C [rifampicin]", "tested target": "Mycobacterium tuberculosis Erdman (autoluminescent)", "GRinf": 0.192}
{"compound": "CC(C)/N=c1\\cc2n(-c3ccc(Cl)cc3)c3ccccc3nc-2cc1Nc1ccc(Cl)cc1 [clofazimine] + NNC(=O)c1ccncc1 [isoniazid] + NC(=O)c1cnccn1 [pyrazinamide]", "tested target": "Mycobacterium tuberculosis Erdman (autoluminescent)", "GRinf": 0.259}
{"compound": "CC[C@@H](CO)NCCN[C@@H](CC)CO [ethambutol] + NC(=O)c1cnccn1 [pyrazinamide] + CO[C@H]1/C=C/O[C@@]2(C)Oc3c(C)c(O)c4c(O)c(c(/C=N/N5CCN(C6CCCC6)CC5)c(O)c4c3C2=O)NC(=O)/C(C)=C\\C=C\\[C@H](C)[C@H](O)[C@@H](C)[C@@H](O)[C@@H](C)[C@H](OC(C)=O)[C@@H]1C [rifapentine]", "tested target": "Mycobacterium tuberculosis Erdman (autoluminescent)", "GRinf": 0.301}
{"compound": "CC(C)/N=c1\\cc2n(-c3ccc(Cl)cc3)c3ccccc3nc-2cc1Nc1ccc(Cl)cc1 [clofazimine] + NNC(=O)c1ccncc1 [isoniazid] + CO[C@H]1/C=C/O[C@@]2(C)Oc3c(C)c(O)c4c(O)c(c(/C=N/N5CCN(C6CCCC6)CC5)c(O)c4c3C2=O)NC(=O)/C(C)=C\\C=C\\[C@H](C)[C@H](O)[C@@H](C)[C@@H](O)[C@@H](C)[C@H](OC(C)=O)[C@@H]1C [rifapentine]", "tested target": "Mycobacterium tuberculosis Erdman (autoluminescent)", "GRinf": 0.166}
{"compound": "CC(C)/N=c1\\cc2n(-c3ccc(Cl)cc3)c3ccccc3nc-2cc1Nc1ccc(Cl)cc1 [clofazimine] + COc1c(N2C[C@@H]3CCCN[C@@H]3C2)c(F)cc2c(=O)c(C(=O)O)cn(C3CC3)c12 [moxifloxacin] + O=[N+]([O-])c1cn2c(n1)OC[C@@H](OCc1ccc(OC(F)(F)F)cc1)C2 [pretomanid]", "tested target": "Mycobacterium tuberculosis Erdman (autoluminescent)", "GRinf": 0.184}
{"compound": "CC(C)/N=c1\\cc2n(-c3ccc(Cl)cc3)c3ccccc3nc-2cc1Nc1ccc(Cl)cc1 [clofazimine] + NNC(=O)c1ccncc1 [isoniazid] + O=[N+]([O-])c1cn2c(n1)OC[C@@H](OCc1ccc(OC(F)(F)F)cc1)C2 [pretomanid]", "tested target": "Mycobacterium tuberculosis Erdman (autoluminescent)", "GRinf": 0.217}

---

# Test system: Mycobacterium tuberculosis Erdman (autoluminescent)
# test details: total FIC90 (Loewe) at 90% inhibition, three-drug combination (log2); higher = more antagonistic
# stated conditions: in vitro model: dormancy (butyrate + nitrate, low O2); time point: constant (~7 days, model-specific)
metric name: total FIC90

{"molecule": "COc1nc2ccc(Br)cc2cc1[C@@H](c1ccccc1)[C@@](O)(CCN(C)C)c1cccc2ccccc12 [bedaquiline] + NNC(=O)c1ccncc1 [isoniazid] + COc1c(N2C[C@@H]3CCCN[C@@H]3C2)c(F)cc2c(=O)c(C(=O)O)cn(C3CC3)c12 [moxifloxacin]", "tested target": "Mycobacterium tuberculosis Erdman (autoluminescent)", "metric name": "total FIC90", "observed measurement": 0.336}
{"molecule": "COc1nc2ccc(Br)cc2cc1[C@@H](c1ccccc1)[C@@](O)(CCN(C)C)c1cccc2ccccc12 [bedaquiline] + CC(C)/N=c1\\cc2n(-c3ccc(Cl)cc3)c3ccccc3nc-2cc1Nc1ccc(Cl)cc1 [clofazimine] + O=[N+]([O-])c1cn2c(n1)OC[C@@H](OCc1ccc(OC(F)(F)F)cc1)C2 [pretomanid]", "tested target": "Mycobacterium tuberculosis Erdman (autoluminescent)", "metric name": "total FIC90", "observed measurement": -1.22}
{"molecule": "COc1nc2ccc(Br)cc2cc1[C@@H](c1ccccc1)[C@@](O)(CCN(C)C)c1cccc2ccccc12 [bedaquiline] + COc1c(N2C[C@@H]3CCCN[C@@H]3C2)c(F)cc2c(=O)c(C(=O)O)cn(C3CC3)c12 [moxifloxacin] + NC(=O)c1cnccn1 [pyrazinamide]", "tested target": "Mycobacterium tuberculosis Erdman (autoluminescent)", "metric name": "total FIC90", "observed measurement": -0.988}
{"molecule": "NNC(=O)c1ccncc1 [isoniazid] + COc1c(N2C[C@@H]3CCCN[C@@H]3C2)c(F)cc2c(=O)c(C(=O)O)cn(C3CC3)c12 [moxifloxacin] + O=[N+]([O-])c1cn2c(n1)OC[C@@H](OCc1ccc(OC(F)(F)F)cc1)C2 [pretomanid]", "tested target": "Mycobacterium tuberculosis Erdman (autoluminescent)", "metric name": "total FIC90", "observed measurement": 2.29}
